Data provenance is a melting point compilation (Tetko et al.; mined from patent text by program, amines drawn as free bases though some values may be those of a salt).

Here, each record is paired with measured melting point data.

Study these solved cases before continuing.
Nc1nc(N)c2c(ccc3c2ccn3Cc2ccc(Cl)cc2Cl)n1	249 to 250 °C
O=C(O)CN1C(=O)C(=Cc2ccc(OCc3ccccc3)c(OCc3ccccn3)c2)SC1=S	204 to 207 °C
CCCC1(CCC)CC1(CN)C(=O)O (stereo not given)	255 to 257 °C
O=C(C[C@H](C(=O)N[C@H](CO)Cc1ccccc1)n1cc(-c2ccc(-c3ccccc3)cc2)cn1)OCc1ccccc1	116 to 117 °C

Let us move to another entry and its melting point.
Suppose we examine the compound `CC(C)(C)C(Cl)=NNc1ccc(Cl)cc1` ; what melting point value has been reported? 42 to 43 °C

----------
reported_property: melting point (°C)

CC(C)(C)c1cc(C=O)cc(I)c1O	124
O=c1[nH]ncn1C(c1cccc(Cl)c1)c1ccnc2ccccc12 (stereo not given)	244

(1) CC(C)(c1ccc(O)cc1)c1ccc(OC#N)cc1
(2) Cc1c(F)c(F)nc(-c2ccc(C(F)(F)F)cc2)c1F
Hi, I'm comparing 1 with 2 and wondering which one has the bigger number for melting point. Any idea? Reply with the label of the item you choose. 1

----------
reported_property: melting point

COc1ccc(-c2ccn(C)c2-c2ccc(OC)cc2)cc1	126 to 127 °C
CCc1cc(C(=O)O)c2cc(C(C)C)cccc1-2	154 to 156 °C
COC(=O)c1ccc(Oc2c(C)n(CC(=O)O)c3ccc(F)cc23)cc1	195 to 196 °C

Suppose we examine the compound COc1ccc2ccc(N3C(=O)c4ccccc4C3OC(=O)N3CCN(C)CC3)nc2n1 (stereo unspecified) ; what melting point value has been reported? 218 °C

Suppose we examine the compound `COc1cccc(C(N)=O)c1N` ; what melting point value has been reported? 140 to 141 °C

Suppose we examine the compound CNC(=O)C1CCCN1S(=O)(=O)c1ccc(N2CCC3(CC2)OCCO3)cc1 (stereo unspecified) ; what melting point value has been reported? 137 to 139 °C

Suppose we examine the compound `CCCCOc1c(CNC(=O)OC(C)(C)C)n(CC(C)C)c(=O)c2ccc(-c3ccccn3)cc12` ; what melting point value has been reported? 123 to 124 °C

Suppose we examine the compound CCCCCCCCCCCCc1nnn(C(CCCCCCCCCCCC)C(=O)O)n1 (stereo unspecified) ; what melting point value has been reported? 57 to 59 °C

----------
Here, each record is paired with measured melting point data.

Study these solved cases before continuing.
CSC1C(=O)c2ccccc2N1C(=O)c1ccccc1 (stereo unspecified)	126 to 128 °C
CCCn1c(Cl)cc2cnc(C)n2c1=O	125 to 126 °C
Cc1cccc2c1N(CC(=O)N1CC3CCC(CC3)C1)C(=O)C(NC(=O)Nc1cccc(C(=O)O)c1)N=C2c1ccccc1F (stereo unspecified)	197 to 204 °C

Suppose we examine the compound CN(CC(O)C(O)C(O)C(O)CO)C(=O)c1c(I)c(N)c(I)c(N)c1I (stereo unspecified) ; what melting point value has been reported? 110 °C

Suppose we examine the compound CC(C)(C)NC(=S)c1nn(-c2ccc(F)cc2F)c2c1C1CCC2C1 (stereo unspecified) ; what melting point value has been reported? 148 to 150 °C

Suppose we examine the compound Cc1cccc(N2CCN(c3ccnc4sc(C(N)=O)c(N)c34)CC2C)c1 (stereo unspecified) ; what melting point value has been reported? 215 to 217 °C

Suppose we examine the compound `CCCNC(=N)Nc1nc2ccc(OC(F)(F)F)cc2s1` ; what melting point value has been reported? 110 to 111 °C

----------
reported_property: melting point

Study these solved cases before continuing.
CCOC(=O)C(=O)N1CCCc2c1ccc1[nH]c(=O)c(=O)[nH]c21	> 285 °C
Fc1cc(Cn2ccnc2)cc2c1Cc1c(-c3ccsc3)n[nH]c1-2	274 to 276 °C
COC(=O)/C=C/C(=O)/C=C/c1ccc(OC)cc1	54 to 55 °C
CN(C(=O)On1cccn1)c1ccccc1	63 to 67 °C
CC1(C)CC(NC(=O)C(O)c2ccccc2)c2cc(C#N)ccc2O1 (stereo unspecified)	120 to 121 °C
Cc1cc(CO)cc(C#N)n1	136 to 138 °C
Nc1ccc(C2Sc3ccccc3C=C2c2ccc3c(c2)NC(=O)CO3)cc1 (stereo unspecified)	186 to 189 °C
COc1cc(C(=O)NS(=O)(=O)c2ccccc2C)ccc1Cc1c(Cl)n(C)c2ccc(CC(C)NC(=O)N(C)C)cc12 (stereo unspecified)	120 to 130 °C
CCOC(=O)c1c(Nc2c(C)cccc2C)n[nH]c1C	131 to 137 °C
O=CC1=Cc2cc(-c3ccccc3)ccc2OC1	108 to 110 °C

Let us move to another entry and its melting point.
Suppose we examine the compound O=C1CCCC2=C1C(c1cc(Br)cs1)C1=C(CCS1)N2 (stereo unspecified) ; what melting point value has been reported? > 250 °C

----------
reported_property: melting point

Study these solved cases before continuing.
CON1C=C(C)N=C(NC(=O)NS(=O)(=O)c2ccccc2C=CC(F)(F)F)N1	159 to 160 °C
CC1=CC(C)=Nc2c(ccc3nc(O)c(O)nc23)N1	> 300 °C
COCC1CN(c2ccc(C3CCC(=O)CC3)cc2)C(=O)O1 (racemic)	114 to 116 °C

Suppose we examine the compound `CCOC(=O)CN(C(=S)Nc1cc(Cl)ccc1C)c1ccccc1` ; what melting point value has been reported? 148 to 150 °C

Suppose we examine the compound `NC(=O)Nc1cccc2c1C(=O)c1c-2n[nH]c1-c1cccs1` ; what melting point value has been reported? 214 °C

Suppose we examine the compound Cc1cc2c(cc1N1CCCC1)OC(=O)C2C (stereo unspecified) ; what melting point value has been reported? 67 to 69 °C

----------
Here, each record is paired with measured melting point data.

Study these solved cases before continuing.
CCC(=O)OCc1cc2c3ccccc3[nH]c(=O)n2n1	184 to 186 °C
Cn1cc(-c2ccccc2)c(=O)c(-c2cccc([N+](=O)[O-])c2)c1	135 to 136 °C
CC1=C(C)CCCCCC1	63 to 64 °C
O=C(CCc1nc(-c2ccc(Cl)cc2)co1)OCc1ccccc1	66 to 67 °C
CCCSc1ccc(Oc2ccc(Cl)c(Cl)c2)nc1C#N	67 to 69 °C

Suppose we examine the molecule `Cc1ccc(N=CN(C)SN(C)c2ccccc2)c(C)c1` ; what melting point value has been reported? 72 to 73.5 °C

Suppose we examine the molecule `O=C1CSCCN1c1ccc(C(F)(F)F)cc1` ; what melting point value has been reported? 79 to 80 °C

Suppose we examine the molecule O=C1C=C(CC2CCCC(C(F)(F)F)C2)C(=O)c2ccccc21 (stereo not given) ; what melting point value has been reported? 65 °C

Suppose we examine the molecule `Cc1cc(Oc2c(Cl)cc(C(F)(F)F)cc2Cl)nn1C(=O)NC(C)(C)C` ; what melting point value has been reported? 116 to 117 °C

----------
Here, each record is paired with measured melting point data.

CC(C)(C)c1ccc(C(=O)C(Cl)(Cl)Cl)cc1	59 to 62 °C

Suppose we examine the compound `O=C(NCc1cc(C(F)(F)F)cc(C(F)(F)F)c1)c1oc(=O)c2ncccc2c1-c1ccccc1` ; what melting point value has been reported? 129 to 130 °C

Suppose we examine the compound `C=Cn1cc(C(=O)O)c(=O)c2c(C)c(F)c(N3CCNCC3)c(F)c21` ; what melting point value has been reported? 222 to 225 °C

Suppose we examine the compound `COc1cnc(CSc2nc3cc(OC(F)(F)F)ccc3[nH]2)cc1OC` ; what melting point value has been reported? 92 to 93 °C

Suppose we examine the compound `CC(C)(C)c1cc(-c2cc(C(C)(C)C)cc(-n3nc4ccccc4n3)c2O)c(O)c(-n2nc3ccccc3n2)c1` ; what melting point value has been reported? 234 °C

Suppose we examine the compound CCCCC(CC)n1c(CC)nc2c1C(=O)N(C)CN2c1ccc(Cl)cc1Cl (centres undefined) ; what melting point value has been reported? 94 to 95 °C

Suppose we examine the compound `Cc1ccc(C(=O)C2(O)CCCCC2)cc1C` ; what melting point value has been reported? 103 to 104 °C

Suppose we examine the compound `O=C(O)c1cccc(Oc2ncccc2C(=O)NCc2ccccc2)c1` ; what melting point value has been reported? 157 to 158 °C

Suppose we examine the compound `CCOc1cc(C(=O)OC)nc2cc(OC)c3ncccc3c12` ; what melting point value has been reported? 188 to 190 °C

----------
reported_property: melting point

Study these solved cases before continuing.
CN1C(=O)[C@H](NC(=O)CNc2ccccc2)N=C(c2ccccc2)c2ccccc21	245 to 246 °C
Nc1sccc1C(=O)c1ccc(Cl)cc1	178 to 180 °C
O=C1NC(=O)c2c1c(-c1ccccc1Cl)cc1c2c2cc(O)c(OCCCN3CCOCC3)cc2n1CCO	253 to 255 °C
CS(=O)(=O)c1sc(S(N)(=O)=O)cc1CCO	120 to 124 °C

Suppose we examine the molecule CC1(C)Oc2ccc(C#N)cc2C(Oc2ccc(O)nn2)C1O (stereo not drawn) ; what melting point value has been reported? 232 to 233 °C
